Substrate: CCn1c(=NN=c2sc3cc(S(=O)(=O)O)ccc3n2CC)sc2cc(S(=O)(=O)O)ccc21
testMethodNotes: purified protein
assayContext: pH 5.0, 42 °C, 0.1-25 mM substrate
measure: Km (mM)
Give the value, in units of mM, as a plain number.

Lookup: Given the entry ScSLAC (small laccase, SLAC) (Streptomyces coelicolor A3(2)) (protein) AKGITARTAPAGGEVRHLKMYAEKLADGQMGYGFEKGKASVPGPLIEVNEGDTLHIEFTNTMDVRASLHVHGLDYEISSDGTAMNKSDVEPGGTRTYTWRTHKPGRRDDGTWRPGSAGYWHYHDHVVGTEHGTGGIRNGLYGPVIVRRKGDVLPDATHTIVFNDMTINNRKPHTGPDFEATVGDRVEIVMITHGEYYHTFHMHGHRWADNRTGILTGPDDPSRVIDNKITGPADSFGFQIIAGEGVGAGAWMYHCHVQSHSDMGMVGLFLVKKPDGTIPGYEPHEHGGATAKSGESGEPTGGAAAHEHEH , report its measured Km.
Found: 7.3
